# target_desc: met (HGF receptor) in human gastric cancer cells MKN45 (Homo sapiens)
# Construct: endogenous in cells
# experimental_details: Inhibitory activity against met-autophosphorylation using ELISA method (2), MKN45 cells, HGF-independent
We begin with a simple list: items and their reported log10(IC50).
endpoint: log10(IC50) (log10 of the value in nM)

>>> assay_value("COc1cc2nccc(Oc3ccc(NC(=O)NC(=O)Cc4cc(F)ccc4F)cc3F)c2cc1OC")
2.42
>>> assay_value("COc1cc2nccc(Oc3ccc(NC(=O)CC(=O)Nc4cccnc4)cc3)c2cc1OC")
3.64
>>> assay_value("COc1cc2nccc(Oc3ccc(NC(=O)NC(=O)Nc4ccc5c(c4)CCC5)cc3)c2cc1OC")
3.48
>>> assay_value("COc1cc2c(Oc3ccc(NC(=S)NC(=O)Cc4ccc(C)cc4)cc3F)ccnc2cc1OCC(O)CN1CCOCC1 (stereo not shown)")
1.37
>>> assay_value("COc1cc2nccc(Oc3ccc(NC(=S)NC(=O)Cc4ccccc4F)cc3Cl)c2cc1OC")
2.39
>>> assay_value("COc1cc2nccc(Oc3ccc(NC(=O)NC(=O)Nc4c(C)cccc4C)cc3)c2cc1OC")
2.55
>>> assay_value("COc1cc2nccc(Oc3ccc(NC(=S)NC(=O)Cc4ccccc4F)cc3)c2cc1OC")
2.41
>>> assay_value("COc1cc2nccc(Oc3ccc(NC(=S)NC(=O)Cc4ccccc4Cl)cc3F)c2cc1OC")
2.30
>>> assay_value("COc1cc2c(Oc3ccc(NC(=O)NC(=O)Cc4ccccc4)cc3F)ccnc2cc1OCC(O)CN1CCOCC1 (stereo not shown)")
1.34
>>> assay_value("CCN(CC)CCOc1cc2nccc(Oc3ccc(NC(=S)NC(=O)Cc4ccc(F)cc4)cc3F)c2cc1OC")
1.36
>>> assay_value("COc1cc2nccc(Oc3ccc(NC(=O)NC(=O)Cc4ccsc4)cc3F)c2cc1OC")
1.50
>>> assay_value("COc1cc2nccc(Oc3ccc(NC(=S)NC(=O)c4ccccc4Br)cc3F)c2cc1OC")
3.08
>>> assay_value("COc1cc2nccc(Oc3ccc(NC(=O)NC(=O)Cc4ccsc4)cc3Cl)c2cc1OC")
2.27
>>> assay_value("COc1cc2nccc(Oc3ccc(NC(=S)NC(=O)Cc4ccc(F)c(F)c4)c(F)c3)c2cc1OC")
2.47
>>> assay_value("COc1cc2nccc(Oc3ccc(NC(=S)NC(=O)Cc4ccccc4)c(C)c3)c2cc1OC")
2.32
>>> assay_value("COc1cc2nccc(Oc3ccc(NC(=O)NC(=O)Nc4cccc5ncccc45)cc3)c2cc1OC")
2.43

----------
# target_desc: met (HGF receptor) in human gastric cancer cells MKN45 (Homo sapiens)
# Construct: endogenous in cells
# experimental_details: Inhibitory activity against met-autophosphorylation using ELISA method (2), MKN45 cells, HGF-independent
pIC50: −log10 of the molar value.
Reported pIC50 values are given for each entry in this list.
endpoint: pIC50

>>> assay_value("COc1cc2nccc(Oc3ccc(NC(=S)NC(=O)Cc4ccccc4C)cc3F)c2cc1OC")
7.40
>>> assay_value("COc1cc2nccc(Oc3ccc(NC(=O)NC(=O)Nc4ccc(F)cc4F)cc3)c2cc1OC")
6.56
>>> assay_value("COc1cc2c(Oc3ccc(NC(=O)NC(=O)Cc4ccccc4)cc3F)ccnc2cc1OCCN1CCOCC1")
7.58
>>> assay_value("COc1cc2c(Oc3ccc(NC(=S)NC(=O)Cc4ccccc4)cc3F)ccnc2cc1OCC(O)CN1CCOCC1 (centres unmarked)")
7.72
>>> assay_value("COc1cc2nccc(Oc3ccc(NC(=S)NC(=O)Cc4cccc(F)c4)cc3Cl)c2cc1OC")
7.29
>>> assay_value("COc1cc2nccc(Oc3ccc(NC(=O)NC(=O)Cc4c(F)cccc4F)c(F)c3)c2cc1OC")
6.63
>>> assay_value("COc1cc2nccc(Oc3ccc(NC(=S)NC(=O)Cc4ccc(C)cc4)cc3F)c2cc1OC")
6.65
>>> assay_value("COc1cc2nccc(Oc3ccc(NC(=O)CC(=O)NCC4CCCCC4)cc3)c2cc1OC")
6.32

----------
# target_desc: met (HGF receptor) in human gastric cancer cells MKN45 (Homo sapiens, UniProt P08581)
# Construct: endogenous in cells
# Sequence (P08581 25-1390): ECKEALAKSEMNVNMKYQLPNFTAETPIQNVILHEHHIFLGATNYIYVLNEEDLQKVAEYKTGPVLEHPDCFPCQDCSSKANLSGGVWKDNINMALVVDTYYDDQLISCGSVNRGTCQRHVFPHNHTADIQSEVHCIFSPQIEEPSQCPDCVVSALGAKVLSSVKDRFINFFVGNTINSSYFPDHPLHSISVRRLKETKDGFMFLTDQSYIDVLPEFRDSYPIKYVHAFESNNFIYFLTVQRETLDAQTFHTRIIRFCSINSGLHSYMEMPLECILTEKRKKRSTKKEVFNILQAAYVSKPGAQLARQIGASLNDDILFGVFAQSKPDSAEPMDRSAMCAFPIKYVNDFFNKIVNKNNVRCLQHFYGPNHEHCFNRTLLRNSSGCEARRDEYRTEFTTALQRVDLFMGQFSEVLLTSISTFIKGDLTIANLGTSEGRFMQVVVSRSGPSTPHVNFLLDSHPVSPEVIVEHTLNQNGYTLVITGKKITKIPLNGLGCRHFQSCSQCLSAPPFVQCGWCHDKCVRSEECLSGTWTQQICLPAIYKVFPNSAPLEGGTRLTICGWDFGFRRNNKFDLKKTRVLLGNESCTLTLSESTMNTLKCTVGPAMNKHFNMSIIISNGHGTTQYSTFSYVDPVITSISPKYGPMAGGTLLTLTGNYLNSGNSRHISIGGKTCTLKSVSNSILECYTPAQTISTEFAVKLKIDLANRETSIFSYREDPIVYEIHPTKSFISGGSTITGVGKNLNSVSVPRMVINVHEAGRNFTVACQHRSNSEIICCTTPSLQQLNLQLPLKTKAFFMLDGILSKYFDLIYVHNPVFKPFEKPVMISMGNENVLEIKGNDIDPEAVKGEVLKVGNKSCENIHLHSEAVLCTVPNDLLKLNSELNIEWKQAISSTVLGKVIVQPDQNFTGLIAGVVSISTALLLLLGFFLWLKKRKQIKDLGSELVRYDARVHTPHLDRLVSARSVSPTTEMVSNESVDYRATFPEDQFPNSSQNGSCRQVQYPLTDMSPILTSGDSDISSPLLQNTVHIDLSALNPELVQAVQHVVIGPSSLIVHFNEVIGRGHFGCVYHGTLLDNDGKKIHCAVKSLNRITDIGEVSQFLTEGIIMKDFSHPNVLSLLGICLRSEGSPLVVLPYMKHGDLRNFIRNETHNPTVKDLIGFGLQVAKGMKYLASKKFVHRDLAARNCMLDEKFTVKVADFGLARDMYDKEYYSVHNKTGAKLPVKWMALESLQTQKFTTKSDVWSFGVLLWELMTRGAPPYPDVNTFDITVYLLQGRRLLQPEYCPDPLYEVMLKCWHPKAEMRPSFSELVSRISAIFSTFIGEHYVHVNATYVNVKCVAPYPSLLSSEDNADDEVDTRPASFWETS
# experimental_details: Inhibitory activity against met-autophosphorylation using ELISA method (2), MKN45 cells, HGF-independent
pIC50: −log10 of the molar value.
endpoint: pIC50

>>> assay_value("COc1cc2nccc(Oc3ccc(NC(=O)C(C)C(=O)NC4CCCCC4)cc3)c2cc1OC (stereo not shown)")
5.49
>>> assay_value("COc1cccc(C(=O)NC(=S)Nc2ccc(Oc3ccnc4cc(OC)c(OC)cc34)c(F)c2)c1")
6.16
>>> assay_value("COc1cc2nccc(Oc3ccc(NC(=S)NC(=O)Cc4ccccc4F)cc3F)c2cc1OC")
7.56
>>> assay_value("COc1cc2nccc(Oc3ccc(NC(=S)NC(=O)Cc4ccc(C)cc4)c(F)c3)c2cc1OC")
6.83
>>> assay_value("COc1cccc(CC(=O)NC(=S)Nc2ccc(Oc3ccnc4cc(OC)c(OC)cc34)c(Cl)c2)c1")
6.63
>>> assay_value("COc1cc2nccc(Oc3ccc(NC(=O)NC(=O)Nc4ccccn4)cc3)c2cc1OC")
6.63
>>> assay_value("COc1cc2nccc(Oc3ccc(NC(=O)CC(=O)Nc4ccc(F)cc4F)c(F)c3)c2cc1OC")
7.56
>>> assay_value("COc1cc2nccc(Oc3ccc(NC(=S)NC(=O)Cc4ccc(F)c(F)c4)cc3F)c2cc1OC")
6.62
>>> assay_value("COc1cc2nccc(Oc3ccc(NC(=S)NC(=O)CC4C5CCC4CC5)c(F)c3)c2cc1OC (stereo not shown)")
7.28
>>> assay_value("COc1cc2c(Oc3ccc(NC(=O)NC(=O)Cc4ccc(F)cc4)c(F)c3)ccnc2cc1OCCCN1CCOCC1")
7.53
>>> assay_value("COc1cc2nccc(Oc3cc(C)c(NC(=S)NC(=O)Cc4ccccc4)cc3C)c2cc1OC")
6.70
>>> assay_value("COc1cc2nccc(Oc3ccc(NC(=O)CC(=O)Nc4cccc(O)c4)cc3)c2cc1OC")
6.53
>>> assay_value("CCCCOCC(=O)NC(=S)Nc1ccc(Oc2ccnc3cc(OC)c(OC)cc23)c(F)c1")
6.59
>>> assay_value("COc1cccc(NC(=O)NC(=O)Nc2ccc(Oc3ccnc4cc(OC)c(OC)cc34)cc2)c1")
6.47
>>> assay_value("COc1cc2c(Oc3ccc(NC(=S)NC(=O)Cc4ccccc4F)cc3F)ccnc2cc1OCC(O)CN1CCCC1 (stereo not shown)")
6.90
>>> assay_value("COc1cc2nccc(Oc3ccc(NC(=O)NC(=O)Nc4ccc(C)cn4)cc3)c2cc1OC")
6.67

----------
# target_desc: met (HGF receptor) in human gastric cancer cells MKN45 (Homo sapiens)
# Construct: endogenous in cells
# experimental_details: Inhibitory activity against met-autophosphorylation using ELISA method (2), MKN45 cells, HGF-independent
endpoint: IC50 (nM)

>>> assay_value("COc1cc2nccc(Oc3ccc(NC(=S)NC(=O)CC4C5CCC4CC5)cc3F)c2cc1OC (stereo not shown)")
28.1
>>> assay_value("COc1cc2c(Oc3ccc(NC(=S)NC(=O)Cc4ccccc4Cl)cc3F)ccnc2cc1OCCCN1CCOCC1")
75.3
>>> assay_value("COc1cc2nccc(Oc3ccc(NC(=S)NC(=O)Cc4ccccc4)c(F)c3)c2cc1OC")
27
>>> assay_value("COc1cc2nccc(Oc3ccc(NC(=O)NC(=O)Cc4cccc(F)c4)cc3F)c2cc1OC")
58.4

----------
# target_desc: met (HGF receptor) in human gastric cancer cells MKN45 (Homo sapiens)
# Construct: endogenous in cells
# experimental_details: Inhibitory activity against met-autophosphorylation using ELISA method (2), MKN45 cells, HGF-independent
pIC50: −log10 of the molar value.
Use condition met when the recorded pIC50 is no lower than 7; use condition not met when it is lower.

>>> classification("COc1cc2nccc(Oc3ccc(NC(=S)NC(=O)Cc4ccc(Cl)cc4)cc3Cl)c2cc1OC [Example 189]")
"condition not met"
>>> classification("COc1cc2c(Oc3ccc(NC(=S)NC(=O)Cc4ccccc4)cc3F)ccnc2cc1OCCCN1CCC(CO)CC1 [Example 309]")
"condition met"
>>> classification("CCCCNC(=O)CC(=O)Nc1ccc(Oc2ccnc3cc(OC)c(OC)cc23)cc1 [Example 209]")
"condition not met"
>>> classification("COc1cc2c(Oc3ccc(NC(=O)NC(=O)Cc4ccccc4)cc3F)ccnc2cc1OCCN1CCC(CO)CC1 [Example 283]")
"condition met"
>>> classification("COc1cc2c(Oc3ccc(NC(=O)NC(=O)Cc4ccc(F)cc4)cc3F)ccnc2cc1OCCN1CCOCC1 [Example 55]")
"condition not met"
>>> classification("COc1cc2nccc(Oc3ccc(NC(=S)NC(=O)Cc4ccc(F)cc4F)cc3F)c2cc1OC [Example 94]")
"condition met"
>>> classification("COc1cc2c(Oc3ccc(NC(=S)NC(=O)Cc4ccccc4)cc3F)ccnc2cc1OCC(O)CN1CCCC1 (centres unmarked) [Example 332]")
"condition met"
